Values compiled from ChEMBL document CHEMBL1127438.

system-name: D(3) dopamine receptor (Homo sapiens)
Sequence (P35462 whole entry): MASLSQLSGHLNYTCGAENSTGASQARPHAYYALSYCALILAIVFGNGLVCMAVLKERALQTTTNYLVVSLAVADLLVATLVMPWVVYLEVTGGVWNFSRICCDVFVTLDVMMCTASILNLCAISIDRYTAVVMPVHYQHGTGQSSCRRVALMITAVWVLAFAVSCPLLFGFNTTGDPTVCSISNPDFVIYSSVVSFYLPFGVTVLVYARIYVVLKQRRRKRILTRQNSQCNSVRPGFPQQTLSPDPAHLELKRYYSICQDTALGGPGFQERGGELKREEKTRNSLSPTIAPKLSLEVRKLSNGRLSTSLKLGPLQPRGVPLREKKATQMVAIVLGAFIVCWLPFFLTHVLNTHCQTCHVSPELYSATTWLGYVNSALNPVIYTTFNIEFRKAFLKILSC
assay-explanation: Tested for in vitro binding affinity against cloned mammalian dopamine autoreceptor (DA) receptors expressed in CHO-K1 cells [3H]-spiperone as radioligand
Assay type: cell-based
In plain terms, low Ki, meaning strictly below 80 nM, gives satisfied, and everything else gives not satisfied.

{"compound": "CCCN1CCC[C@@H](c2ccccc2OS(=O)(=O)C(F)(F)F)C1", "group-label": "not satisfied"}
{"compound": "CCCc1cccc([C@@H]2CCCN(CCC)C2)c1", "group-label": "not satisfied"}
{"compound": "CCCN1CCCC2c3cccc(OS(=O)(=O)C(F)(F)F)c3CCC21 (stereo in doubt; 46)", "group-label": "satisfied"}
{"compound": "CCCN1CCC2c3cccc(OS(=O)(=O)C(F)(F)F)c3CCC21 (stereo unspecified)", "group-label": "satisfied"}
{"compound": "CCCN1CCC[C@@H](c2cccc(C=O)c2)C1", "group-label": "not satisfied"}
{"compound": "CCCN1CCC[C@@H](c2ccc(OS(=O)(=O)C(F)(F)F)cc2)C1", "group-label": "not satisfied"}
{"compound": "O=S(=O)(Oc1cccc([C@@H]2CCCN(CCc3ccccc3)C2)c1)C(F)(F)F", "group-label": "satisfied"}
{"compound": "CCCN1CCC[C@@H](c2cccc(C)c2)C1", "group-label": "not satisfied"}
{"compound": "C#Cc1cccc([C@@H]2CCCN(CCC)C2)c1", "group-label": "not satisfied"}
{"compound": "CCCN1CCC[C@@H](c2ccccc2)C1", "group-label": "not satisfied"}
{"compound": "CCCN1CCC[C@@H](c2cccc(OS(=O)(=O)c3ccc(C)cc3)c2)C1", "group-label": "not satisfied"}

====

Tested on: Rattus norvegicus
assay-explanation: Evaluated for locomotor activity in nonpretreated habituated rats in 100 umol/kg of subcuteneous dose
Assay type: functional
Design: unit not given here
parameter: LMA

{"molecule": "C=CCN1CC[C@@H]2c3cccc(OS(=O)(=O)C(F)(F)F)c3CC[C@@H]21 (stereo in doubt; 49)", "experimental-value": 116}
{"molecule": "CCCN1CCCC2c3cccc(OS(=O)(=O)C(F)(F)F)c3CCC21 (stereo in doubt; 46)", "experimental-value": 200}
{"molecule": "CCCN1CCCC2c3cccc(OS(=O)(=O)C(F)(F)F)c3CCC21 (stereo in doubt; 45)", "experimental-value": 266}
{"molecule": "C=CCN1CC[C@@H]2c3cccc(OS(=O)(=O)C(F)(F)F)c3CC[C@@H]21 (stereo in doubt; 50)", "experimental-value": 148}

====

# pKi per entry
system-name: D(3) dopamine receptor (Homo sapiens)
assay-explanation: Tested for in vitro binding affinity against cloned mammalian dopamine D3 receptor, expressed in CHO-K1 cells, using [3H]spiperone as radioligand
Format: cell-based
pKi: −log10 of the molar value.

{"compound": "C=CCN1CCC[C@@H](c2cccc(C#N)c2)C1", "system-name": "D(3) dopamine receptor (Homo sapiens)", "limit-qualifier": "=", "pKi": 6.18}
{"compound": "CCCN1CCC[C@@H](c2cccc(C(C)=O)c2)C1", "system-name": "D(3) dopamine receptor (Homo sapiens)", "limit-qualifier": "=", "pKi": 5.67}
{"compound": "N#Cc1cccc([C@@H]2CCCNC2)c1", "system-name": "D(3) dopamine receptor (Homo sapiens)", "limit-qualifier": "=", "pKi": 6.20}
{"compound": "C=CCN1CCC2c3cccc(C(N)=O)c3CCC21 (stereo unspecified)", "system-name": "D(3) dopamine receptor (Homo sapiens)", "limit-qualifier": "<", "pKi": 5.82}
{"compound": "N#Cc1cccc([C@@H]2CCCN(CCc3ccccc3)C2)c1", "system-name": "D(3) dopamine receptor (Homo sapiens)", "limit-qualifier": "=", "pKi": 7.23}
{"compound": "C#CCN1CCC[C@@H](c2cccc(C#N)c2)C1", "system-name": "D(3) dopamine receptor (Homo sapiens)", "limit-qualifier": "<", "pKi": 5.87}
